- system.tested: HIV Env of isolate REJO4541.67 (clade B) (HIV)
- protocol.summary: cell-based or functional assay
property: IC50 (µg/ml) with constrains (µg/mL)

INSERT INTO results (binder, property, u, experimental_value) VALUES
  ('ePGDM5 (antibody, V domains shown) VH: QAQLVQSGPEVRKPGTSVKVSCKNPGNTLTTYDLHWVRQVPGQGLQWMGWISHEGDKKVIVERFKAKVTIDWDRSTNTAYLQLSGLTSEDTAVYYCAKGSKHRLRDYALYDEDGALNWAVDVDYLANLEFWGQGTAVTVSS VL: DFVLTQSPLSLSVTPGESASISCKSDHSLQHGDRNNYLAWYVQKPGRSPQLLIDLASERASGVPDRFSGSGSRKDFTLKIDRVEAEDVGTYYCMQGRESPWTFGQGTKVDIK', 'IC50 (µg/ml) with constrains', 'µg/mL', 0.001),
  ('PGDM1400 (antibody, V domains shown) VH: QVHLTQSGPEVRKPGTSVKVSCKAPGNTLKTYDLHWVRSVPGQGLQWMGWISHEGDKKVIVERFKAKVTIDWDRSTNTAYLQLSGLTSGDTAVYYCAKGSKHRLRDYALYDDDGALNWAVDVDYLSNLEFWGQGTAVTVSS VL: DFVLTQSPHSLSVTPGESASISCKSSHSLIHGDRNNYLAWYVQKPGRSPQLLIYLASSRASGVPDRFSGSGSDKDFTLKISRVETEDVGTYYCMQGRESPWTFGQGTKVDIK', 'IC50 (µg/ml) with constrains', 'µg/mL', 0.004),
  ('ePGDM13 (antibody, V domains shown) VH: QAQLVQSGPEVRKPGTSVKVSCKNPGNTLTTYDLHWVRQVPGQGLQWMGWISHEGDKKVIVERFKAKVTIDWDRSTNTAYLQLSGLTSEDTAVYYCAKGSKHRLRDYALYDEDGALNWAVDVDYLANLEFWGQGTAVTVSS VL: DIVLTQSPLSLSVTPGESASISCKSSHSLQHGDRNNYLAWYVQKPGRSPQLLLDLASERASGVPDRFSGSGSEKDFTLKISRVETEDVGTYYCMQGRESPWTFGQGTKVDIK', 'IC50 (µg/ml) with constrains', 'µg/mL', 0.002);
